test system: VDR homodimer (NR concentration 270 nM); experiment: PBM binding z-score (relative to random genomic background probes); higher = stronger binding; sequences stand for … in GC…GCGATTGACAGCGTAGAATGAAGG
quantityName: PBM binding z-score
Numbers only.

As a guide, the following entries are already answered.
{"monomerSequence": "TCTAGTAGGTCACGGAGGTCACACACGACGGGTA", "quantityName": "PBM binding z-score", "val": 4.8}
{"monomerSequence": "TCTAGTTGGTCAAAGGTCTCACACTCGAAATGCG", "quantityName": "PBM binding z-score", "val": 0.545}
{"monomerSequence": "CCGACTTGGGCAAAGGTTACCATACTCAGTACGA", "quantityName": "PBM binding z-score", "val": 0.0256}
{"monomerSequence": "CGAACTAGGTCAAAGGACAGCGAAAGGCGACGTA", "quantityName": "PBM binding z-score", "val": 0.311}
{"monomerSequence": "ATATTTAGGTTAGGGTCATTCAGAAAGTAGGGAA", "quantityName": "PBM binding z-score", "val": 4.22}

Working through the 4 sequences below one at a time, give PBM binding z-score for each.
1. CTATGTAGGTTAAGGGGGTCATCCAGTTTGAAAG
2. CCGCGTAGGTTACGAGGGGGCATTCAGTGCGAAT
3. CAAACTAGGTCACAGAGGACAAAGTCCGTGCGTA
4. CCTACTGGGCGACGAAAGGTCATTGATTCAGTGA

Data returned:
[4.9, 2.58, 3.57, 1.38]

----------
test system: RARg homodimer (NR concentration 270 nM); test: PBM binding z-score (relative to random genomic background probes); higher = stronger binding; sequences stand for … in GC…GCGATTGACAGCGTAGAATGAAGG
Hi there, I'd appreciate the recorded PBM binding z-score for every entry that follows.
Answers are plain numbers.

{"monomerSequence": "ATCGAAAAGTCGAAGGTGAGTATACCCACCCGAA", "quantityName": "PBM binding z-score", "val": 0.586}
{"monomerSequence": "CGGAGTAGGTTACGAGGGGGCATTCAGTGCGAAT", "quantityName": "PBM binding z-score", "val": 2.86}

Working through the 2 sequences below one at a time, give PBM binding z-score for each.
1. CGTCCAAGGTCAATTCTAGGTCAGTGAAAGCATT
2. GCTGCTAGGTCAGGTTGGTCAGCTAACGGGTACG

Data returned:
1: 6.42; 2: 3.45

Working through the 3 sequences below one at a time, give PBM binding z-score for each.
1. TCGAGTAGGTTACGGAGGCATTCAGGGATGAAGA
2. GCTTACGGGTCAAAGGTTAAAGCATGAATAGAAT
3. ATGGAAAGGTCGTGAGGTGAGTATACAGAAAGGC

Data returned:
[0.4, 5.18, 4.67]

Working through the 7 sequences below one at a time, give PBM binding z-score for each.
1. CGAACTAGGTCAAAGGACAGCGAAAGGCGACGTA
2. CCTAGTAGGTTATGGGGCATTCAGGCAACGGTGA
3. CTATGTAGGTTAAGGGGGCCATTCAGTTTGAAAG
4. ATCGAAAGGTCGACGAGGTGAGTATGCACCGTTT
5. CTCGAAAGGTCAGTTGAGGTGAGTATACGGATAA
6. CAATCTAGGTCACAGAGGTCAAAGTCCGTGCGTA
7. ATACGTAGGTTACATCCGGGTCATTCAGGCTATG

Data returned:
[4.72, 0.852, 1.78, 4.29, 7.89, 7.82, 2.17]

Working through the 3 sequences below one at a time, give PBM binding z-score for each.
1. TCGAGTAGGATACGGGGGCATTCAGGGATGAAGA
2. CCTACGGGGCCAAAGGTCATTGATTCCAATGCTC
3. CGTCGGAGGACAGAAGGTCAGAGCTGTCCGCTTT

Data returned:
1. 0.916
2. 5.24
3. 3.38
